Cited source for all entries: ChEMBL document CHEMBL1201862

Parameter: GI50. Scope: all listed entries.
Test system: A549
test-method-notes: NCI tumour cell line growth inhibition, 48 h
Active and inactive are the calls of the source. Cut-off read from the data, not from the text of the source: active = GI50 up to about 1.1 µM and inactive = higher.
measured-attribute: GI50

1) CCCNC(=O)c1cc(OC)c(OC)cc1NC(=O)C12CC3CC(CC(C3)C1)C2 | 17.1 µM (inactive)
2) CC1=C(C(=O)Nc2cc(F)c(F)cc2F)C(c2ccc([N+](=O)[O-])cc2)C(C(=O)Nc2cc(F)c(F)cc2F)=C(C)N1 | 37.8 µM (inactive)
3) CC(=O)OCC1OC(On2ccccc2=S)C(OC(C)=O)C(OC(C)=O)C1OC(C)=O (centres undefined) | > 100 µM (inactive)
4) C=C1C(=O)OC2C1C(OC(=O)/C(C)=C/C)CC(O)(CCl)C1C(O)C3OC3(C)C21O (centres undefined) | > 50 µM (inactive)
5) Nc1c2ccccc2nc2nccnc12 | > 100 µM (inactive)
6) CC(C)Oc1c(O)c2c3c(oc(=O)n3C=CC2c2ccccc2)c1OC(C)C (centres undefined) | 27.3 µM (inactive)
7) CN(C)/C=C/c1nnc([N+](=O)[O-])s1 | 19.9 µM (inactive)
8) CC(=O)OCC1OC(n2c(=O)n(-c3ccccc3)c(=O)c3cc(Br)cc(Br)c32)C(OC(C)=O)C(OC(C)=O)C1OC(C)=O (centres undefined) | > 100 µM (inactive)
9) COc1cc2nc(-c3cccs3)nc(Nc3ccccc3C(=O)NN)c2cc1OC | > 100 µM (inactive)
